Target: Neuronal acetylcholine receptor subunit alpha-7 (Homo sapiens)
Sequence (P36544 whole entry): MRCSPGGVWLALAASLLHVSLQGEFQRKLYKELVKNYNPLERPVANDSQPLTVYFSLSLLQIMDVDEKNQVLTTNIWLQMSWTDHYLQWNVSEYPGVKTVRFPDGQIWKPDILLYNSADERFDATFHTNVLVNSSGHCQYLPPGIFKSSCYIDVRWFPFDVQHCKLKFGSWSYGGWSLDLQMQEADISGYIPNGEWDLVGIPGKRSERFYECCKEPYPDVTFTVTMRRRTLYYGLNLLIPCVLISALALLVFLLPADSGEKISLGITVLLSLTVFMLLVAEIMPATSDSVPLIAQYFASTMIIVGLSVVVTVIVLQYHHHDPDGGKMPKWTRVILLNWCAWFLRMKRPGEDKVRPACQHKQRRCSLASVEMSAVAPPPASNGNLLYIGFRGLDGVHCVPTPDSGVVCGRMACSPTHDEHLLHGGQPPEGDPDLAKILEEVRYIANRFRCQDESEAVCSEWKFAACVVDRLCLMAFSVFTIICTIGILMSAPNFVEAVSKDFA
Assay: Agonist activity at human alpha-7 nAChR expressed in Xenopus oocytes by two-electrode voltage clamp technique
Format: functional, cell-based, Oocyte
Conditions: read-out: EC50
REPORTED_METRIC: EC50

Looking up CC1CN(C(=O)OCCC(C)N(C)C)C1 (stereo unspecified) , I see its EC50 listed as > 320 µM

* * *

Target: Neuronal acetylcholine receptor; alpha4/beta2 (Rattus norvegicus, UniProt P09483+P12390)
Sequence (P09483 whole entry): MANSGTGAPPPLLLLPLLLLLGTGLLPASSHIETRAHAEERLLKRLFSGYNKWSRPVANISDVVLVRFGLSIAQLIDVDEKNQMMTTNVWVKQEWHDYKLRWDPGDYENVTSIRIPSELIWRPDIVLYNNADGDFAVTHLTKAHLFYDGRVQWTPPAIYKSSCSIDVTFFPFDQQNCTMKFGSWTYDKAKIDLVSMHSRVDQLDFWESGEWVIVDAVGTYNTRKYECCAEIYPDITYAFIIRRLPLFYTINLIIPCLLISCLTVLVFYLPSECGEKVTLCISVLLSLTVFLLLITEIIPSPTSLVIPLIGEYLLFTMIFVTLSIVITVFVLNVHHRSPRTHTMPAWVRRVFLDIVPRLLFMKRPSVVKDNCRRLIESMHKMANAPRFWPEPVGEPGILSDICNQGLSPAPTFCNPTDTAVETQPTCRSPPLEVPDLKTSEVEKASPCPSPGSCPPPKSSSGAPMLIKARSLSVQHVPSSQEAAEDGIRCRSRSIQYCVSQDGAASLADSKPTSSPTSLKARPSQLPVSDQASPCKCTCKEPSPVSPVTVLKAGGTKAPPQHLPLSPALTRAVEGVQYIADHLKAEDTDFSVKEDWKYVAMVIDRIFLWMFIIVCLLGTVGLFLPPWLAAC
Sequence (P12390 whole entry): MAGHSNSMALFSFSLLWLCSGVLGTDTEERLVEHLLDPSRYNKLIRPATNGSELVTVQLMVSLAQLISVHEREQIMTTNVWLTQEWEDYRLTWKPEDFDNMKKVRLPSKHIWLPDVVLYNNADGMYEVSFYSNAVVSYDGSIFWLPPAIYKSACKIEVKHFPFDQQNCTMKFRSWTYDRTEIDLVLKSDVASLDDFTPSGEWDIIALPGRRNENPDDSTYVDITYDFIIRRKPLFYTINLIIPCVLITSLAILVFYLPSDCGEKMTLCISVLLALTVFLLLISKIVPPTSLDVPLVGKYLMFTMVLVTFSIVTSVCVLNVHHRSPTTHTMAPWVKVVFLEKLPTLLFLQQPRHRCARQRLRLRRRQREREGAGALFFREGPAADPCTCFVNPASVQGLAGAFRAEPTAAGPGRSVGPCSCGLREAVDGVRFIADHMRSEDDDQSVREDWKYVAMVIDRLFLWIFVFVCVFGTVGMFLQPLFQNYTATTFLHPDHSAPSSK
Assay: Displacement of [3H]epibatidine from rat recombinant alpha4beta2 nAChR expressed in HEK293 cells
Recorded pKi for the following compounds
Answer as the number alone; pKi is minus log10 of concentration in mol/L.

Looking up CC(=O)OCCC(C)N(C)C (centres undefined) , I see its pKi listed as 7.19

Looking up CC(CCOC(=O)N1CCCC1)N(C)C (centres undefined) , I see its pKi listed as 6.68

Looking up CC(CCOC(=O)N(C)C)N(C)C (centres undefined) , I see its pKi listed as 7.70

Looking up CC(CCOC(=O)N1CC(F)(F)C1)N(C)C (centres undefined) , I see its pKi listed as 7.24

Looking up CC(CCOC(=O)N1CCC1)N(C)C (centres undefined) , I see its pKi listed as 8.29

Looking up CC(C)C(=O)OCCC(C)N(C)C (centres undefined) , I see its pKi listed as 7.52

Looking up CC(CCOC(=O)C1CCC1)N(C)C (centres undefined) , I see its pKi listed as 7.00

Looking up CC(CCOC(=O)N1CCC1C)N(C)C (centres undefined) , I see its pKi listed as 7.82

Looking up CC(CCOC(=O)n1cccc1)N(C)C (centres undefined) , I see its pKi listed as 6.51

Looking up CC1CN(C(=O)OCC[C@H](C)N(C)C)C1 , I see its pKi listed as 7.24

Looking up CC(CCOC(=O)c1ccccc1)N(C)C (centres undefined) , I see its pKi listed as 6.49

Looking up CC(CCOC(=O)N1CC(C)(C)C1)N(C)C (centres undefined) , I see its pKi listed as 7.24

Looking up CC1CN(C(=O)OCC[C@@H](C)N(C)C)C1 , I see its pKi listed as 9.04

Looking up CC1CN(C(=O)OCCC(C)N(C)C)C1 (centres undefined) , I see its pKi listed as 8.68
